System: EL-49
Test: Shoot culture herbicide resistance (shoot injury and fresh weight on M20 media)
Type: cell-based, Beta vulgaris L.
Details: Beta vulgaris, 504 h; EL-49; herbicide concentration causing 50% injury to the shoot culture, 3 weeks; read-out: I50
pIC50: −log10 of the molar value.
Mark FALSE for pIC50 values under 7, and TRUE for everything at or above.

CC(C)C1(C)N=C(c2nc3ccccc3cc2C(=O)O)NC1=O (centres unmarked); TRUE
CCc1cnc(C2=NC(C)(C(C)C)C(=O)N2)c(C(=O)O)c1 (centres unmarked); TRUE
Cc1ccn2nc(S(=O)(=O)Nc3c(F)cccc3F)nc2n1; FALSE

Next item in the queue.
QUERY: Quick check: does COc1nc(C)nc(NC(=O)NS(=O)(=O)c2ccccc2Cl)n1 have pIC50 greater than or equal to 7?
RESULT: FALSE
